These data points were gathered from patent US9040019B2.

- experiment_description: Measurement of optical properties of the agents (absorbance and fluorescence emission)
- Type: physicochemical
- details: in DMSO; nerve labeling agents
- Description: The flurophores were dissolved in dimethylsulfoxide (DMSO) to make a 10 mM stock solution. An aliquot was taken to prepare a 10-100 μM flurophore solution in methanol, water, or DMSO. Optical measurements from the three solvents were taken. Absorbance spectra were measured using a PerkinElmer Lambda™ 20 UV/VIS spectrometer (PerkinElmer, Waltham, Mass.). Emission spectra were generated using a PTI steady state fluorimeter (Photon Technology International, Birmingham, N.H.). […]
value_kind: Absorbance Maximum (nm)

compound: CC1=CC(=C(C#N)C#N)C=C(/C=C/c2ccc(NCCO)cc2)O1 [Formula V]
Absorbance Maximum (nm): 484
//
compound: CC1=CC(=C(C#N)C#N)C=C(/C=C/c2ccc(N)cc2)O1 [Formula II]
Absorbance Maximum (nm): 478
//
compound: COc1cc(/C=C/C2=CC(=C(C#N)C#N)C=C(C)O2)ccc1N [Formula VI]
Absorbance Maximum (nm): 478
//
compound: COc1cc(/C=C/C2=CC(=C(C#N)C#N)C=C(C)O2)ccc1NCc1ccc(N)cc1 [Formula IV]
Absorbance Maximum (nm): 492
//
compound: CC1=CC(=C(C#N)C#N)C=C(/C=C/c2ccc(N(CCO)CCO)cc2)O1 [Formula III]
Absorbance Maximum (nm): 491
